Where do these numbers come from? They come from patent US20210388007A1.

# assay.notes: storage stability (sealed storage, degradation rate)
# Format: physicochemical
# condition.context: sealed storage at 30° C. for two weeks
Here, each record is paired with measured storage stability, sealed storage at 30° C. for two weeks (degradation rate, mol %) data.
property.measured: storage stability, sealed storage at 30° C. for two weeks (degradation rate, mol %)

{"columns": ["molecule", "result"],
 "data": [
  ["OC(C(F)(F)F)[Si](c1ccccc1)(c1ccccc1)c1ccccc1 (stereo not shown)", "<1% mol %"],
  ["C[Si](C)(c1ccccc1)C(O)C(F)(F)F (racemic)", "5% mol %"],
  ["C[Si](C)(c1ccccc1)C(O)C(F)F (racemic)", "4% mol %"],
  ["C[Si](c1ccccc1)(c1ccccc1)C(O)C(F)(F)F (racemic)", "3.2% mol %"]
]}

* * *

# assay.notes: solubility in common solvents of the tri(di)fluoroethanolation reagents
# Format: physicochemical
# condition.context: solvent acetonitrile

{"columns": ["molecule", "solubility acetonitrile"],
 "data": [
  ["C[Si](C)(c1ccccc1)C(O)C(F)F (racemic)", "dissolved"],
  ["C[Si](c1ccccc1)(c1ccccc1)C(O)C(F)(F)F (racemic)", "dissolved"],
  ["OC(C(F)(F)F)[Si](c1ccccc1)(c1ccccc1)c1ccccc1 (stereo not shown)", "dissolved"],
  ["C[Si](C)(c1ccccc1)C(O)C(F)(F)F (racemic)", "dissolved"]
]}

* * *

# assay.notes: solubility in common solvents of the tri(di)fluoroethanolation reagents
# Type: physicochemical
# condition.context: solvent ethyl acetate (EA)

{"columns": ["compound", "solubility ethyl acetate (EA)"],
 "data": [
  ["OC(C(F)(F)F)[Si](c1ccccc1)(c1ccccc1)c1ccccc1 (stereo not shown)", "dissolved"],
  ["C[Si](c1ccccc1)(c1ccccc1)C(O)C(F)(F)F (racemic)", "dissolved"],
  ["C[Si](C)(c1ccccc1)C(O)C(F)F (racemic)", "dissolved"],
  ["C[Si](C)(c1ccccc1)C(O)C(F)(F)F (racemic)", "dissolved"]
]}

* * *

# assay.notes: solubility in common solvents of the tri(di)fluoroethanolation reagents
# Type: physicochemical
# condition.context: solvent n-hexane
property.measured: solubility n-hexane

{"columns": ["molecule", "property.measured", "result"],
 "data": [
  ["C[Si](C)(c1ccccc1)C(O)C(F)(F)F (racemic)", "solubility n-hexane", "dissolved"],
  ["C[Si](C)(c1ccccc1)C(O)C(F)F (racemic)", "solubility n-hexane", "dissolved"],
  ["C[Si](c1ccccc1)(c1ccccc1)C(O)C(F)(F)F (racemic)", "solubility n-hexane", "well"]
]}
